Quick reference for IC50 among some compounds
target: recombinant human MCHR1 receptors (Homo sapiens); construct: expressed in transfected cells; assay: MCHR Filter Binding Assay (competition binding with [Phe13[125I]Tyr19]-MCH); details: membranes from CHO-K1 cells stably expressing human MCHR1; 0.2 nM radiolabeled MCH; read-out: Activity in MCHR binding assays (IC50 class)

// below: answered compounds
{"compound": "Cc1nc2cc(C#N)ccc2n1[C@H]1CC[C@@H](NCC2Cc3ccc(Cl)cc3C2)CC1 (some centres unmarked) [Example 25]", "tgt": "recombinant human MCHR1 receptors (Homo sapiens)", "IC50": "10 to 100 nM"}
{"compound": "Cc1ccc2c(c1)nc(C)n2[C@@H]1CC[C@@H](NCC2Cc3ccc(Cl)cc3C2)C1 (relative stereo) [Example 3]", "tgt": "recombinant human MCHR1 receptors (Homo sapiens)", "IC50": "100 to 1000 nM"}
{"compound": "Cc1ccc2c(c1)nc(C(C)(C)O)n2[C@H]1CC[C@H](NCC2Cc3ccc(Cl)cc3C2)CC1 (some centres unmarked) [Example 21]", "tgt": "recombinant human MCHR1 receptors (Homo sapiens)", "IC50": "100 to 1000 nM"}
{"compound": "Cc1ccc2c(c1)nc(C)n2[C@H]1CC[C@@H](NCC2Cc3ccccc3C2)CC1 [Example 13]", "tgt": "recombinant human MCHR1 receptors (Homo sapiens)", "IC50": "100 to 1000 nM"}
{"compound": "Cc1ccc2c(c1)nc(C(C)(C)O)n2[C@H]1CC[C@@H](NCC2Cc3ccc(F)cc3C2)CC1 (some centres unmarked) [Example 18]", "tgt": "recombinant human MCHR1 receptors (Homo sapiens)", "IC50": "10 to 100 nM"}

IC50 in this record for CC(C)(O)c1nc2cc(Cl)ccc2n1[C@H]1CC[C@@H](NC[C@H]2Cc3ccc(Br)cc3C2)CC1 [Example 7] : 10 to 100 nM

// IC50 value for Cc1ccc2c(c1)nc(C(C)(C)O)n2[C@H]1CC[C@@H](NCC2Cc3ccc(Cl)cc3C2)CC1 (some centres unmarked) [Example 20] : 10 to 100 nM

// field: IC50; key: CC(C)(O)c1nc2cc(Cl)ccc2n1[C@H]1CC[C@@H](NCC2Cc3ccc(Cl)cc3C2)CC1 (some centres unmarked) [Example 10] ; value = 10 to 100 nM

Sure, the documented IC50 for Cc1ccc2c(c1)nc(C)n2[C@H]1CC[C@@H](NCC2Cc3ccc(C(F)(F)F)cc3C2)CC1 (some centres unmarked) [Example 12] is 100 to 1000 nM

Entry CC(=O)N(C[C@H]1Cc2ccc(C#N)cc2C1)[C@H]1CC[C@@H](n2c(C(C)(C)O)nc3cc(Cl)ccc32)CC1 [Example 23] , IC50 reported as 100 to 1000 nM

So for CC(C)(O)c1nc2cc(Cl)ccc2n1[C@H]1CC[C@@H](NCC2Cc3ccccc3C2)CC1 [Example 9] , the logged IC50 turned out to be 10 to 100 nM

###

biological target: recombinant human MCHR1 receptors (Homo sapiens, UniProt Q99705); construct: expressed in transfected cells; experiment: MCHR Filter Binding Assay (competition binding with [Phe13[125I]Tyr19]-MCH); conditions: inhibition of binding of MCH to MCHR; read-out: MCHR IC50
Sequence (Q99705 whole entry): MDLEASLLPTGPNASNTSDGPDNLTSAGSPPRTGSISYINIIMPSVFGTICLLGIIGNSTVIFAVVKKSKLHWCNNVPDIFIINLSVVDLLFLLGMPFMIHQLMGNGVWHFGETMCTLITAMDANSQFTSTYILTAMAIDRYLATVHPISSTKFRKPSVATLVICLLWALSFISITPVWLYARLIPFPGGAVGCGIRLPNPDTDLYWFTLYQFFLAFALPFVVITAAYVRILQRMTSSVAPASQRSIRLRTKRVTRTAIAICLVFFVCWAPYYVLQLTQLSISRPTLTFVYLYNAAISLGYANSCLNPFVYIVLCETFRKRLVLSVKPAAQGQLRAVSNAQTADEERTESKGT
pIC50: −log10 of the molar value.
readoutType: pIC50

Solved entries:
{"compound": "Cc1nc2cc(F)ccc2n1[C@H]1CC[C@@H](NC[C@H]2Cc3ccc(C#N)cc3C2)CC1", "resultValue": 8.52}
{"compound": "CC(C)(O)c1nc2cc(Cl)ccc2n1[C@H]1CC[C@@H](NC[C@H]2Cc3ccc(Br)cc3C2)CC1", "resultValue": 7.62}

A. Cc1ccc2c(c1)nc(C(C)(C)O)n2[C@H]1CC[C@@H](NCC2Cc3ccc(Cl)cc3C2)CC1 (some centres unmarked)
B. CC(=O)N(C[C@H]1Cc2ccc(C#N)cc2C1)[C@H]1CC[C@@H](n2c(C(C)(C)O)nc3cc(Cl)ccc32)CC1
C. CC(C)(O)c1nc2cc(Cl)ccc2n1[C@H]1CC[C@@H](NC[C@H]2Cc3ccc(C#N)cc3C2)CC1
INPUT: Please put the entries in order of rising pIC50. When ranking, write the labels in the order the request describes.
OUTPUT: B, A, C
